- assay system: PARP1 (Homo sapiens, UniProt P09874)
- Construct: made in house
- Sequence (P09874 whole entry): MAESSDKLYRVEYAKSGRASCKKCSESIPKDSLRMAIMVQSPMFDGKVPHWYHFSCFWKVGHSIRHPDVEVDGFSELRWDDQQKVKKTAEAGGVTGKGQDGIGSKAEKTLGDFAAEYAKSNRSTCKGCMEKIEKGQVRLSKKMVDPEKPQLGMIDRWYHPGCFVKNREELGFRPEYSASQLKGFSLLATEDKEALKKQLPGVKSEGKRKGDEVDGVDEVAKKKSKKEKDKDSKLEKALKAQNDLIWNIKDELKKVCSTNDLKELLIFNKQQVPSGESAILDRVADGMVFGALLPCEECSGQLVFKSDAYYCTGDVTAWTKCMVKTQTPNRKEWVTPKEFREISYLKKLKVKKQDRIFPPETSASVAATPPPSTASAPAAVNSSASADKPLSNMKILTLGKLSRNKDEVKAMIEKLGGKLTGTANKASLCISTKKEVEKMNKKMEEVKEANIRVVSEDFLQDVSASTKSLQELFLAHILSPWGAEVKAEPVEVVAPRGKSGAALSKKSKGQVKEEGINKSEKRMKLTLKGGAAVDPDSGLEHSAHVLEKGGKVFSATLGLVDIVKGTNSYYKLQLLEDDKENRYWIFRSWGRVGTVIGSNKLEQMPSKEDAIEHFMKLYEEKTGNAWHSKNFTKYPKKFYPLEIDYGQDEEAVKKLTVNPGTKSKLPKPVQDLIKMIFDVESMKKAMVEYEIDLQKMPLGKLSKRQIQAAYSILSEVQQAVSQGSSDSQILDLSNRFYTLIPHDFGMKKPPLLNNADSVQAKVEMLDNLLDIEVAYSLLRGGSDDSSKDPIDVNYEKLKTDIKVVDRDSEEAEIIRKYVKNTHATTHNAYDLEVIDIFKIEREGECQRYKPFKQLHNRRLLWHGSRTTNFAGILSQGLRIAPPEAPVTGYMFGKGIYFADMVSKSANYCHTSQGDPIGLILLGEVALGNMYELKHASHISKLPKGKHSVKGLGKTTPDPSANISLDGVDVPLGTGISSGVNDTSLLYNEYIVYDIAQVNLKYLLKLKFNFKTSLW
- test details: Biochemical fluorescent polarization (FP) assay, displacement of PARPi-FL, PARP1
- Type: binding
- applied conditions: 20 nM protein, 3 nM PARPi-FL, 4 h at room temperature; read-out: FP PARP1 pIC50 (converted)
- Method: Compounds were characterized using an assay measuring the displacement of a commercially available fluorescently labeled PARP 1/2 inhibitor (PARPi-FL, Tocris Biosciences, #6461) as exemplified in assays performed in WO2014/064149 and WO2021/013735A1. The assay was performed utilizing the following method: Compounds were dissolved in DMSO an Echo550 liquid handler was utilized to make serial dilations in the desired concentration range in Optiplate-384F plates. […]
experimental readout: IC50 (nM)

1: CCc1cc2ncc(CN3CCN(c4ccc(C#N)nc4)[C@H]4C[C@H]43)cc2[nH]c1=O (single isomer, unassigned) [Example 14]
2: O=c1[nH]c2cc(CN3CCN(c4ccc(F)cn4)CC3)cnc2cc1Cl [Example 47]
Query string: Returns: the argument ( 1 or 2 ) having the larger IC50. Output the label that corresponds to your choice.
Result string: 2
(2: 10 nM, 1: 5.01 nM)

1: Cc1cc2ncc(CN3CCN(c4ccc(C#N)nc4F)CC3)cc2[nH]c1=O [Example 78]
2: CCc1cc2ncc(CN3CCN(c4ccc(F)nc4)CC3)cc2[nH]c1=O [Example 34]
3: N#Cc1ccc(N2CCN(Cc3cnc4cc(C(F)F)c(=O)[nH]c4c3)CC2)c(F)n1 [Example 62]
Query string: Arrange items by their IC50 values in increasing order. Respond with an ordered listing of the labels, as requested.
Result string: 1, 2, 3
(1: 6.31 nM, 2: 10 nM, 3: 63.1 nM)

----------
- assay system: PARP1 (Homo sapiens, UniProt P09874)
- Construct: made in house
- test details: Biochemical fluorescent polarization (FP) assay, displacement of PARPi-FL, PARP1
- Format: binding
- applied conditions: 20 nM protein, 3 nM PARPi-FL, 4 h at room temperature; read-out: FP PARP1 pIC50 (converted)
experimental readout: IC50 (nM)

molecule	result units	IC50
N#Cc1ccc(N2CCN(Cc3cnc4cc(C(F)F)c(=O)[nH]c4c3)CC2)c(C(F)F)c1 [Example 80]	nM	15.8
C#Cc1cc2ncc(CN3CCN(c4ccc(C#N)nc4)CC3)cc2[nH]c1=O [Example 1]	nM	15.8
Cc1nc2ccc(CN3CCN(c4ccc(C#N)cn4)CC3)c(F)c2[nH]c1=O [Example 70]	nM	10
Cc1cc2ncc(CN3CCN(c4ccc(C#N)nc4C4CC4)CC3)cc2[nH]c1=O [Example 27]	nM	7.94
N#Cc1ccc(N2CCN(Cc3cnc4cc(C5CCCO5)c(=O)[nH]c4c3)CC2)nc1 (single isomer, unassigned) [Example 69]	nM	10
Cc1c(C(F)F)c(=O)[nH]c2cc(CN3CCN(c4ccc(C#N)cn4)CC3)cnc12 [Example 42]	nM	50.1

1: CCc1cc2ncc(CN3CCN(c4ccc(Br)cn4)CC3)cc2[nH]c1=O [Example 7]
2: Cc1cc2ncc(CN3CCN(c4ccc(C#N)nc4C(F)F)CC3)cc2[nH]c1=O [Example 31]
Query string: Hello, I am sorting some records. Could you say if 1 or 2 has the smaller IC50 value? Output the label that corresponds to your choice.
Result string: 2

1: Cc1cc2ncc(CN3CCN(c4ccc(C#N)cc4F)CC3)cc2[nH]c1=O [Example 18]
2: Cc1cc2ncc([C@@H](C)N3CCN(c4ccc(C#N)cn4)CC3)cc2[nH]c1=O (single isomer, unassigned) [Example 33]
3: Cc1cc2ncc(CN3CCN(c4ccc(F)cn4)[C@H](C)C3)cc2[nH]c1=O [Example 23]
Query string: hey, can you rank those molecules up there by IC50? biggest number first please Respond with an ordered listing of the labels, as requested.
Result string: 3, 1, 2
(3: 39.8 nM, 1: 5.01 nM, 2: 2.51 nM)

I: N#Cc1ccc(N2CCN(Cc3cnc4cc(Cl)c(=O)[nH]c4c3)CC2)c(F)n1 [Example 61]
II: Cc1nc2c(F)c(F)c(CN3CCN(c4ccc(C#N)cn4)CC3)cc2[nH]c1=O [Example 72]
Query string: Hello, I am sorting some records. Could you say if I or II has the smaller IC50 value? Output the label that corresponds to your choice.
Result string: I
(I: 6.31 nM, II: 15.8 nM)

A: CCc1cc2ncc(CN3CCN(c4ccc(C#N)cc4C#N)CC3)cc2[nH]c1=O [Example 52]
B: N#Cc1ccc(N2CCN(Cc3cnc4cc(Cl)c(=O)[nH]c4c3)CC2)c(Cl)n1 [Example 77]
C: N#Cc1ccc(N2CCN(Cc3cnc4cc(Cl)c(=O)[nH]c4c3)CC2)c(F)c1 [Example 76]
Query string: hey, can you rank those molecules up there by IC50? biggest number first please Respond with an ordered listing of the labels, as requested.
Result string: C, A, B
(C: 63.1 nM, A: 25.1 nM, B: 6.31 nM)

----------
- Tested on: DLD-1 BRCA2(−/−) cells
- test details: Cell growth inhibition assay (CellTiter-Glo), DLD-1 BRCA2(−/−)
- Assay type: cell-based
- applied conditions: Homo sapiens, DLD-1, 168 h; 200 cells/well, 7 days, CellTiter Glo 2.0; read-out: DLD-1 BRCA2(−/−) pEC50 (converted)
experimental readout: EC50 (nM)

Answered examples (2):
smiles notation	experimental readout	result units	reported measurement
N#Cc1ccc(N2CCN(Cc3cnc4cc(C(F)F)c(=O)[nH]c4c3)CC2)c(Cl)n1	EC50	nM	0.631
CCc1cc2ncc(CN3CCN(c4ccc(C#N)cc4F)CC3)cc2[nH]c1=O	EC50	nM	1.26

1: Cc1cc2ncc(CN3CCN(c4ccc(C#N)nc4Cl)CC3)cc2[nH]c1=O
2: Cc1cc2ncc(CN3CCN(c4ccc(C#N)cn4)[C@H](C)C3)cc2[nH]c1=O
Query string: Returns: the argument ( 1 or 2 ) having the larger EC50. Output the label that corresponds to your choice.
Result string: 2

----------
- assay system: PARP2 (Homo sapiens, UniProt Q9UGN5)
- Construct: made in house
- Sequence (Q9UGN5 whole entry): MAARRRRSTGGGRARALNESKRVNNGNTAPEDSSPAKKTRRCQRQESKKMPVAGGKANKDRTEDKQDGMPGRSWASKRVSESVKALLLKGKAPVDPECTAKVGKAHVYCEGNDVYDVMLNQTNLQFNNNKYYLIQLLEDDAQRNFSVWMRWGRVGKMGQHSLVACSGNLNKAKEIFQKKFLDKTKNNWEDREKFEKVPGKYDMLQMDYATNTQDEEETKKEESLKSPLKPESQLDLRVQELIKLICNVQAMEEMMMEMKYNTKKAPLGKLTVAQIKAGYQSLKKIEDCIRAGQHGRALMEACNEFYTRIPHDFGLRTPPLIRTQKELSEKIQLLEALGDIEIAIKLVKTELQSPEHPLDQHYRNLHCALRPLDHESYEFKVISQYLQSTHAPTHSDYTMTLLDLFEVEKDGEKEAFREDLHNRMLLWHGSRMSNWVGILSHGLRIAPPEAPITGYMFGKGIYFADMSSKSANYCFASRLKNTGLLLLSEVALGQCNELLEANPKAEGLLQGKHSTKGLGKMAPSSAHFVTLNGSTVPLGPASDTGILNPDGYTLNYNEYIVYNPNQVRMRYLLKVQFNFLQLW
- test details: Biochemical fluorescent polarization (FP) assay, displacement of PARPi-FL, PARP2
- Format: binding
- applied conditions: 20 nM protein, 3 nM PARPi-FL, 4 h at room temperature; read-out: FP PARP2 pIC50 (converted)
experimental readout: IC50 (µM)

compound	IC50, µM
Cc1cc2ncc([C@@H](C)N3CCN(c4ccc(C#N)cn4)CC3)cc2[nH]c1=O (single isomer, unassigned)	6.31
CCc1cc2ncc(CN3CCN(c4cc(F)c(C#N)cc4F)CC3)cc2[nH]c1=O	2
CCc1cc2ncc(CN3CCN(c4ccc(C#N)c(F)c4)CC3)cc2[nH]c1=O	0.501

P: C[C@@H]1CN(Cc2cnc3cc(C4CC4)c(=O)[nH]c3c2)CCN1c1ccc(F)cn1
Q: Cc1cc2ncc(CN3CCN(c4ccc(F)cc4C#N)CC3)cc2[nH]c1=O
Query string: Returns: the argument ( P or Q ) having the larger IC50. Output the label that corresponds to your choice.
Result string: Q

A: Cc1cc2ncc(CN3CCN(c4cc(F)c(F)cn4)CC3)cc2[nH]c1=O
B: CCc1cc2ncc(CN3CCN(c4ccc(C#N)nc4)[C@@H]4C[C@@H]43)cc2[nH]c1=O (single isomer, unassigned)
Query string: Hello, I am sorting some records. Could you say if A or B has the smaller IC50 value? Output the label that corresponds to your choice.
Result string: B

----------
- assay system: PARP1 (Homo sapiens)
- Construct: made in house
- test details: Biochemical fluorescent polarization (FP) assay, displacement of PARPi-FL, PARP1
- Assay type: binding
- applied conditions: 20 nM protein, 3 nM PARPi-FL, 4 h at room temperature; read-out: FP PARP1 pIC50 (converted)
experimental readout: IC50 (nM)

Answered examples (3):
molecule	assay system	experimental readout	result units	reported measurement
CCc1cc2ncc(CN3CCN(c4ccc(C#N)cn4)[C@H](C)C3)cc2[nH]c1=O	PARP1 (Homo sapiens)	IC50	nM	5.01
Cc1cc2ncc(CN3CCN(c4ccc(C#N)cc4C#N)CC3)cc2[nH]c1=O	PARP1 (Homo sapiens)	IC50	nM	25.1
N#Cc1ccc(N2CCN(Cc3ccc4cc(Cl)c(=O)[nH]c4c3F)CC2)nc1	PARP1 (Homo sapiens)	IC50	nM	10

A: Cc1nc2ccc(CN3CCN(c4ccc(C#N)cn4)CC3)cc2[nH]c1=O
B: Cc1cc2ncc(CN3CCN(c4cc(F)c(C#N)cc4F)CC3)cc2[nH]c1=O
Query string: Returns: the argument ( A or B ) having the larger IC50. Output the label that corresponds to your choice.
Result string: A
(A: 10 nM, B: 5.01 nM)

I: N#Cc1ccc(N2CCN(Cc3cnc4cc(C(F)F)c(=O)[nH]c4c3)CC2)c(Cl)n1
II: N#Cc1ccc(N2CCN(Cc3cnc4cc(Cl)c(=O)[nH]c4c3)CC2)cc1
III: [2H]C([2H])(c1cnc2cc(C(F)F)c(=O)[nH]c2c1)N1CCN(c2ccc(C#N)cn2)CC1
IV: Cc1c(Cl)c(=O)[nH]c2cc(CN3CCN(c4ccc(C#N)cc4)CC3)cnc12
Query string: hey, can you rank those molecules up there by IC50? biggest number first please Respond with an ordered listing of the labels, as requested.
Result string: IV, III, I, II
(IV: 50.1 nM, III: 15.8 nM, I: 10 nM, II: 5.01 nM)
